Blood values by entry
- MEASUREMENT NOTES: Biodistribution in rats
- Assay type: in vivo, male rats
- CONDITION LABEL: 2 min post-injection, i.v.
Field: numeric (percent injected dose). Do not append units.

Some molecules with known Blood results, for comparison:
molecule="CC(=NO)C(C)NCCCCNC(C)C(C)=NO (stereo not shown)" value_reported=9.8
molecule="COCC(=NO)C(C)(COC)NCCCCNC(C)(COC)C(COC)=NO (stereo not shown)" value_reported=12.8
molecule=CCC(=NO)C(C)(C)NCCCCNC(C)(C)C(C)=NO value_reported=10.1
molecule=CC(=NO)C(C)(C)NCCCCNC(C)(C)C(Cn1ccnc1[N+](=O)[O-])=NO value_reported=8.4

Exercise: Record request: Blood value, item `CC(C)(NCCCCNC(C)(C)C(Cn1ccnc1[N+](=O)[O-])=NO)C(Cn1ccnc1[N+](=O)[O-])=NO`
Key: 10.8

Exercise: Which Blood value belongs to `CC(=NO)C(C)(C)NCCCCCNC(C)(C)C(Cn1ccnc1[N+](=O)[O-])=NO` ?
Key: 10.6

* * *

- MEASUREMENT NOTES: Biodistribution in rats
- Format: in vivo, male rats
- CONDITION LABEL: 2 min post-injection, i.v.
MEASUREMENT TYPE: Blood (percent injected dose)
Use percent injected dose as the unit, but write only the number.

Worked cases, answers included:
compound="CCC(=NO)C(C)(C)NCCCCNC(C)(C)C=NO [Compound VII]" measure_unit="percent injected dose" value_reported=11.8
compound="CC(C)(C=NO)NCCCCNC(C)(C)C=NO [Compound VI]" measure_unit="percent injected dose" value_reported=13.5
compound="CC(=NO)C(C)(C)NCCCCNC(C)(C)C(C)=NO [Compound I]" measure_unit="percent injected dose" value_reported=9.7
compound="CC(C)(C=NO)NCCCCNC(C)(C)C(Cn1ccnc1[N+](=O)[O-])=NO [Compound XII]" measure_unit="percent injected dose" value_reported=10.8

Exercise: Would you mind telling me what Blood value was observed for CCC(=NO)C(C)(C)NCCCCNC(C)(C)C(CC)=NO [Compound VIII] ?
Key: 9.0

* * *

- MEASUREMENT NOTES: Biodistribution in rats
- Assay type: in vivo, male rats
- CONDITION LABEL: 240 min post-injection (third printed value), i.v.
Please use the following Muscle ranges when assigning a class: small value: < 3 percent injected dose; mid value: ≥ 3 percent injected dose and < 5 percent injected dose; large value: ≥ 5 percent injected dose

Solved cases (5 shown):
compound=CC(C)(C=NO)NCCCCNC(C)(C)C(Cn1ccnc1[N+](=O)[O-])=NO label_value="large value"
compound="COC(=O)C(CCCNC(C)(C)C(C)=NO)NC(C)(C)C(C)=NO (stereo not drawn)" label_value="small value"
compound=CC(C)(C=NO)NCCCCNC(C)(C)C=NO label_value="large value"
compound=CC(C)(NCCCCNC(C)(C)C(Cn1ccnc1[N+](=O)[O-])=NO)C(Cn1ccnc1[N+](=O)[O-])=NO label_value="mid value"
compound=CC(=NO)C(C)(C)NCCCCNC(C)(C)C(C)=NO label_value="mid value"

Exercise: Into which bin does this compound go? CC(=NO)C(C)(C)NCCCNC(C)(C)C(C)=NO [Compound X, reference compound]
Key: small value

Exercise: Any idea which band CC(=NO)C(C)NCCCCNC(C)C(C)=NO (stereo not drawn) is in?
Key: large value

Exercise: Sort `CC(=NO)C(C)(C)NCCCCCNC(C)(C)C(Cn1ccnc1[N+](=O)[O-])=NO` into one of the categories.
Key: small value

* * *

- MEASUREMENT NOTES: Biodistribution in rats
- Type: in vivo, male rats
- CONDITION LABEL: 60 min post-injection, i.v.
Classify by measured Muscle: Y if it is equal to or exceeds 9 percent injected dose, N if it is smaller.

Exercise: Given `CC(=NO)C(C)(C)NCCCCNC(C)(C)C(C)=NO` , state whether its Muscle is at least 9 percent injected dose.
Key: Y

* * *

- MEASUREMENT NOTES: Biodistribution in rats
- Format: in vivo, male rats
- CONDITION LABEL: 240 min post-injection, i.v.
Under this convention, true (1) denotes Gut strictly below 40 percent injected dose and false (0) denotes Gut at or above 40 percent injected dose.

molecule=CCC(=NO)C(C)(C)NCCCCNC(C)(C)C(C)=NO label_value="true (1)"
molecule=CC(C)(C=NO)NCCCCNC(C)(C)C(Cn1ccnc1[N+](=O)[O-])=NO label_value="true (1)"
molecule=CC(=NO)C(C)(C)NCCCCNC(C)(C)C(Cn1ccnc1[N+](=O)[O-])=NO label_value="false (0)"
molecule="CC(=NO)C(C)NCCCCNC(C)C(C)=NO (stereo not drawn)" label_value="true (1)"
molecule="COCC(=NO)C(C)(COC)NCCCCNC(C)(COC)C(COC)=NO (stereo not drawn)" label_value="true (1)"

Now consider a different molecule.
Exercise: Gut under 40 percent injected dose? Item: `CC(=NO)C(C)(C)NCCCCCNC(C)(C)C(C)=NO`
Key: true (1)

* * *

- MEASUREMENT NOTES: Biodistribution in rats
- Assay type: in vivo, male rats
- CONDITION LABEL: 2 min post-injection, i.v.
// Kidney lookup, one value per entry
Kindly provide the numeric value in percent injected dose only, without the unit symbol.

As a guide, the following entries are already answered.
molecule=CC(=NO)C(C)(C)NCCCCCNC(C)(C)C(C)=NO value_reported=11.3
molecule=CC(C)(C=NO)NCCCCNC(C)(C)C(Cn1ccnc1[N+](=O)[O-])=NO value_reported=13.3
molecule="COC(=O)C(CCCNC(C)(C)C(C)=NO)NC(C)(C)C(C)=NO (stereo not shown)" value_reported=13.8

Exercise: Need Kidney, item CC(=NO)C(C)(C)NCCCNC(C)(C)C(C)=NO [Compound X, reference compound]
Key: 1.8

* * *

- MEASUREMENT NOTES: Biodistribution in rats
- Type: in vivo, male rats
- CONDITION LABEL: second of two values, 60 or 240 min not assignable, i.v.
MEASUREMENT TYPE: Liver (percent injected dose)
Reply with just the number (in percent injected dose).

compound=CC(=NO)C(C)(C)NCCCCNC(C)(C)C(C)=NO measurement_type=Liver measure_unit="percent injected dose" value_reported=9.1
compound=CC(=NO)C(C)(C)NCCCCCNC(C)(C)C(C)=NO measurement_type=Liver measure_unit="percent injected dose" value_reported=5.4
compound=CC(C)(C=NO)NCCCCNC(C)(C)C=NO measurement_type=Liver measure_unit="percent injected dose" value_reported=13.7
compound="CC(=NO)C(C)NCCCCNC(C)C(C)=NO (centres unmarked)" measurement_type=Liver measure_unit="percent injected dose" value_reported=20.4

Shift focus to the following entry.
Exercise: What measured Liver goes with `CC(C)(NCCCCNC(C)(C)C(Cn1ccnc1[N+](=O)[O-])=NO)C(Cn1ccnc1[N+](=O)[O-])=NO` ?
Key: 7.3

* * *

- MEASUREMENT NOTES: Biodistribution in rats
- Assay type: in vivo, male rats
- CONDITION LABEL: 2 min post-injection, i.v.
Catalogue of Blood readings, one per entry.
Answer in percent injected dose, number only, no unit symbol.

Some molecules with known Blood results, for comparison:
molecule=CC(=NO)C(C)(C)NCCCCCNC(C)(C)C(C)=NO measurement_type=Blood value_reported=18.1
molecule="COC(=O)C(CCCNC(C)(C)C(C)=NO)NC(C)(C)C(C)=NO (stereo not shown)" measurement_type=Blood value_reported=17.8
molecule="CC(=NO)C(C)(C)NCCCNC(C)(C)C(Cn1ccnc1[N+](=O)[O-])=NO [Compound V, reference compound]" measurement_type=Blood value_reported=7.2

Exercise: // lookup Blood for CC(=NO)C(C)(C)NCCCNC(C)(C)C(C)=NO [Compound X, reference compound]
Key: 5.0

* * *

- MEASUREMENT NOTES: Biodistribution in rats
- Type: in vivo, male rats
- CONDITION LABEL: 60 min post-injection, i.v.
MEASUREMENT TYPE: Muscle (percent injected dose)
Use percent injected dose as the unit, but write only the number.

Recorded Muscle, per entry:
molecule="CC(=NO)C(C)(C)NCCCNC(C)(C)C(Cn1ccnc1[N+](=O)[O-])=NO [Compound V, reference compound]" value_reported=4.2
molecule=CCC(=NO)C(C)(C)NCCCCNC(C)(C)C=NO value_reported=9.2
molecule=CCC(=NO)C(C)(C)NCCCCNC(C)(C)C(CC)=NO value_reported=7.4
molecule=CC(=NO)C(C)(C)NCCCCCNC(C)(C)C(C)=NO value_reported=10.1

// below: Muscle requested for another molecule
Exercise: Quick one: Muscle for `CC(=NO)C(C)(C)NCCCCCNC(C)(C)C(Cn1ccnc1[N+](=O)[O-])=NO` ?
Key: 8.2

All values here come from patent US5997843A.
